molecular target: Acetylcholinesterase (Electrophorus electricus)
Sequence (O42275 whole entry): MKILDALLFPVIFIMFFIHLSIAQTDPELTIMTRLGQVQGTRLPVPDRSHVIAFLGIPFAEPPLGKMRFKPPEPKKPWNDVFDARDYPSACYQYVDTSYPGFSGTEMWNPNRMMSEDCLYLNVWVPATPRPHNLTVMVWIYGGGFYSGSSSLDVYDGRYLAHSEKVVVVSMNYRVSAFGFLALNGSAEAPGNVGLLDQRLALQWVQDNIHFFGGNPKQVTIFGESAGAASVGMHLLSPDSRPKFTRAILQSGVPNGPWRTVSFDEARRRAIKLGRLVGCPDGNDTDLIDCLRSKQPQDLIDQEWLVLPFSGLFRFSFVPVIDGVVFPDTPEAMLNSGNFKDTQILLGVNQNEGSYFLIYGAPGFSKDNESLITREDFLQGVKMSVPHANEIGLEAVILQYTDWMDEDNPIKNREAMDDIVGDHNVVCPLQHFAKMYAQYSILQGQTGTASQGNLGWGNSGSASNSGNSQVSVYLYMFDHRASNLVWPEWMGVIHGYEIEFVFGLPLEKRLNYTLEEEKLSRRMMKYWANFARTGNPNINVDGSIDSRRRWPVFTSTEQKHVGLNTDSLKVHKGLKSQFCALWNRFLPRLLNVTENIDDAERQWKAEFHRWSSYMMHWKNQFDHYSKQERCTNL
quantityKind: Ki (nM)
Report the figure in nM without appending any unit label.

Prompt line: Please give measured Ki of the following entry: `COc1cc(/N=C/c2cc(OC)c(OC)c(OC)c2)cc(OC)c1`
Response line: 720

* * *

target: Cholinesterase (Equus caballus, UniProt P81908); experiment: Inhibition of horse serum BuChE using butyrylthiocholine iodide as substrate preincubated for 20 mins followed by substrate addition by Ellman's method
Sequence (P81908 whole entry): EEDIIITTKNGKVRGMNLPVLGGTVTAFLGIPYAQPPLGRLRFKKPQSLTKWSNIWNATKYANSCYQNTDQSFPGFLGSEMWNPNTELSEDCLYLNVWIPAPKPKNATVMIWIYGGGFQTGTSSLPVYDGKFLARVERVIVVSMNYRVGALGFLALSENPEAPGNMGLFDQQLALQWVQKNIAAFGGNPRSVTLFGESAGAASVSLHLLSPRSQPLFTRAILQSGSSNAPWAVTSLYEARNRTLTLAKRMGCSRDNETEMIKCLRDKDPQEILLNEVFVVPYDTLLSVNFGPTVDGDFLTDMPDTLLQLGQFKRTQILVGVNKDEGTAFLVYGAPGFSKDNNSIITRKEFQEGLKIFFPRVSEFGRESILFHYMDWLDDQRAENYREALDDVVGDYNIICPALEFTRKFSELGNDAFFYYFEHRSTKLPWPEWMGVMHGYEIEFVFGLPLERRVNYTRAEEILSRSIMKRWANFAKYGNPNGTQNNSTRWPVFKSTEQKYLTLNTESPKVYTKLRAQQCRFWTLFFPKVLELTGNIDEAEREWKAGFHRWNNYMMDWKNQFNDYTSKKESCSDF
quantityKind: pIC50
Conceptually, pIC50 converts a concentration in mol/L into minus its log10.

Prompt line: Please give measured pIC50 of the following entry: `COc1cc(/N=C/c2ccc([N+](=O)[O-])cc2)cc(OC)c1`
Response line: 3.34

Prompt line: Please give measured pIC50 of the following entry: `COc1ccc(/C(=N\c2cc(OC)cc(OC)c2)c2ccccc2)cc1`
Response line: 3.55

Prompt line: Please give measured pIC50 of the following entry: `COc1cc(/C=N/c2ccc(C(=O)O)cc2)cc(OC)c1OC`
Response line: 3.42

Prompt line: Please give measured pIC50 of the following entry: `COc1cc(/C(C)=N/c2ccc(C(=O)O)cc2)ccc1O`
Response line: 3.08

Prompt line: Please give measured pIC50 of the following entry: `COc1cc(/N=C/c2ccccc2[N+](=O)[O-])cc(OC)c1`
Response line: 3.34

Prompt line: Please give measured pIC50 of the following entry: `O=C(O)c1ccc(/N=C/c2ccccc2[N+](=O)[O-])cc1`
Response line: 3.41

Prompt line: Please give measured pIC50 of the following entry: `O=C(O)c1ccc(/N=C/c2ccccc2)cc1`
Response line: 3.30

Prompt line: Please give measured pIC50 of the following entry: `COc1cc(/N=C/c2ccccc2O)cc(OC)c1`
Response line: 3.13

Prompt line: Please give measured pIC50 of the following entry: `O=C(O)c1ccc(/N=C/c2ccc([N+](=O)[O-])cc2)cc1`
Response line: 3.66

Prompt line: Please give measured pIC50 of the following entry: `COc1ccc(/C(=N\c2ccc(C(=O)O)cc2)c2ccccc2)cc1`
Response line: 3.54

Prompt line: Please give measured pIC50 of the following entry: `O=C(O)c1ccc(/N=C/c2ccccc2O)cc1`
Response line: 3.14

Prompt line: Please give measured pIC50 of the following entry: `COc1cc(/N=C/c2cc(OC)c(OC)c(OC)c2)cc(OC)c1`
Response line: 3.48
